Test: ACEA_AR_antagonist_AUC_viability: ACEA Biosciences xCELLigence Real-Time Cell Analysis on Androgen Receptor Antagonism for Viability (AID 2283776);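 note: 22Rv1 human prostate cancer cells growing on impedance electrode plates; area under impedance growth curve at 80 h after dosing as viability; hits lower the growth signal relative to DMSO meaning cytotoxicity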
Records with an inconclusive call do not appear. Calls of active or inactive are those of the source. Rule for the calls: active = hit-call score of the fitted dose curve at least 0.9, where 1 is the maximum; inconclusive = response in the unintended direction; inactive = score below 0.9.
Labels: active, inactive

CCCCCCCC(=O)OC
inactive
CCCCc1nc2cccnc2n1Cc1ccc(-c2ccccc2-c2nnn[nH]2)cc1
active
S=c1[nH]c2ccccc2s1
inactive
CCCC[C@H]1CN(CC2CCOCC2)C(=O)OC12CCN(C1(C)CCN(C(=O)c3c(C)ncnc3C)CC1)CC2
inactive
O=[Si]=O
inactive
O=C1NC(=O)C(c2ccccc2)(c2ccccc2)N1
active
COC(=O)CCC(=O)OC
inactive
C=CCCCCCCCCCCCC
inactive
CCCC(=O)O
inactive
NC1CCCCC1
inactive
N[C@@H](Cc1c[nH]c2ccccc12)C(=O)O
active
COC(=O)CCCC(=O)OC
inactive
CN(C)C(=O)NC1(c2ccccc2)CCN(CC[C@@]2(c3ccc(F)c(F)c3)CN(C(=O)c3ccccc3)CCO2)CC1
inactive
Cc1occc(=O)c1O
inactive
CC(C)(O)c1ccc(CNC(=O)c2cccnc2Oc2ccc(F)cc2)cc1
inactive
O=C(N[C@@H](c1ccccc1)[C@@H]1CCCCN1)c1cccc(C(F)(F)F)c1Cl
active
Nc1nc(=S)c2[nH]cnc2[nH]1
active
C#CC(O)C(CC)CCCC (centres undefined)
inactive
CC(=O)S[C@H](C(=O)N[C@H]1Cc2ccccc2[C@H]2CCC[C@@H](C(=O)O)N2C1=O)C(C)C
inactive
CC(=O)[C@@]1(O)CC[C@H]2[C@@H]3CCC4=CC(=O)CC[C@]4(C)[C@H]3CC[C@@]21C
inactive
CC(=O)O[C@]1(C(C)=O)CC[C@H]2[C@@H]3C=C(Cl)C4=CC(=O)[C@@H]5C[C@@H]5[C@]4(C)[C@H]3CC[C@@]21C
active
CCCCCCC(C=O)=Cc1ccccc1
active
CC(C)c1cccc(C(C)C)c1NC(=O)NS(=O)(=O)c1cc(C(C)(C)O)co1
active
O=C(Oc1ccccc1)c1cccc(C(=O)Oc2ccccc2)c1
inactive

====

Target: Peroxisome proliferator-activated receptor gamma (Homo sapiens) (UniProt P37231)
Sequence (P37231 whole entry, looked up): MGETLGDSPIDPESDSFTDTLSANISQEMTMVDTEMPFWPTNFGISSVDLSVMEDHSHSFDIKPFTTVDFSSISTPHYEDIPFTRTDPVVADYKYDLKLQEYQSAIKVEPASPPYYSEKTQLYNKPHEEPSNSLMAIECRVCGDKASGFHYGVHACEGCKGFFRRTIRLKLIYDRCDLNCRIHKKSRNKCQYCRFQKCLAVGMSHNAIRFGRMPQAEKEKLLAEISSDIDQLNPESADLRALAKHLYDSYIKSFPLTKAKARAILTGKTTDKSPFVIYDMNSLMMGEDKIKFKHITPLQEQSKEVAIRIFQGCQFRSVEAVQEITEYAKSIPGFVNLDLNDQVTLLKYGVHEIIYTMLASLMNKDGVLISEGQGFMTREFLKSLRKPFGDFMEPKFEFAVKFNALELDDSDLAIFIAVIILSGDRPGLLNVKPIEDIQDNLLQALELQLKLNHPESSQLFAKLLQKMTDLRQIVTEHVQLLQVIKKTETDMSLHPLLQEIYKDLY
Assay: ATG_PPARg_TRANS: Attagene TRANS-FACTORIAL HepG2 Assay for human Peroxisome Proliferator-activated Receptor-gamma (PPARg) (AID 2283007)
Results filed as inconclusive are left out. Calls of active or inactive are those of the source. Rule for the calls: active = hit-call score of the fitted dose curve at least 0.9, where 1 is the maximum; inconclusive = response in the unintended direction; inactive = score below 0.9.
Outcomes: active, inactive

CSc1ccc(Oc2ccc(S(N)(=O)=O)cc2CN(C)C)cc1C
inactive
CC(=O)S[C@H](C(=O)N[C@H]1Cc2ccccc2[C@H]2CCC[C@@H](C(=O)O)N2C1=O)C(C)C
inactive
Nc1nc(=S)c2[nH]cnc2[nH]1
inactive
O=C1NC(=O)C(c2ccccc2)(c2ccccc2)N1
inactive
Cc1ccc(-c2cc(C(F)(F)F)nn2-c2ccc(S(N)(=O)=O)cc2)cc1
inactive
O=C(O)c1cccnc1
inactive
CCCCCCCCCCCCCCOS(=O)(=O)O
active
COc1ccc(C(=O)Nc2nc3ccccc3c(NCc3ccccc3)c2C#N)cc1
active
CC(=O)OC1CC(C)OC(C)O1 (configuration not stated)
inactive
CCCCCCC(CCCCCCCCCCC(=O)OCC(COC(C)=O)OC(C)=O)OC(C)=O (configuration not stated)
active
CC1=C(C)S(=O)(=O)CCS1(=O)=O
active
CCN(CC)CCOc1ccc(C(=C(Cl)c2ccccc2)c2ccccc2)cc1
inactive

====

Read-out: Glutathione S-transferase M3 (GSTM3), GSTM3 (gene 2947)
Test: LTEA_HepaRG_GSTM3: Life Technologies and Expression Analysis (LTEA) Assay for Glutathione S-transferase M3 (GSTM3) using HepaRG (AID 2283501)
Conditions: mRNA level, 48 h; actives raise or lower the signal
Calls of active or inactive are those of the source. Rule for the calls: active = hit-call score of the fitted dose curve at least 0.9, where 1 is the maximum; inactive = score below 0.9.
measured property: outcome

Cc1occc(=O)c1O
inactive
CC(C)OC(=O)C(C)(C)Oc1ccc(C(=O)c2ccc(Cl)cc2)cc1
inactive
CCCCCCCCCCCCCCOS(=O)(=O)O
inactive
CCCC(=O)O
inactive
CCCCCCCCCC[N+](C)(C)[O-]
inactive
COC(=O)CCC(=O)OC
inactive
CCCCCCC(C=O)=Cc1ccccc1
inactive
CC(=O)O[C@]1(C(C)=O)CC[C@H]2[C@@H]3C=C(Cl)C4=CC(=O)[C@@H]5C[C@@H]5[C@]4(C)[C@H]3CC[C@@]21C
inactive
CN(C)CCCN(C)CCCN(C)C
inactive
Cc1cn([C@H]2C=C[C@@H](CO)O2)c(=O)[nH]c1=O
inactive
CCCCCCCCCCCCCCCCO
inactive
S=c1[nH]c2ccccc2s1
inactive
CCc1cc(C2=C(C(=O)O)N(c3ccccc3C(F)(F)F)S(=O)(=O)c3ccccc32)cc2c1OCO2
inactive
CC(=O)OCC(COC(C)=O)OC(C)=O
inactive
CC(=O)[C@@]1(O)CC[C@H]2[C@@H]3CCC4=CC(=O)CC[C@]4(C)[C@H]3CC[C@@]21C
inactive
CCCCC(CC)COP(=O)(OCC(CC)CCCC)OCC(CC)CCCC (stereo not given)
inactive
C/C=C/C=C/C(=O)O
inactive
CCCCC(CC)CO (stereo not given)
inactive
O=C(Oc1ccccc1)c1cccc(C(=O)Oc2ccccc2)c1
inactive
CC1(C)C(=O)NC(=O)N1CO
inactive
O=[Si]=O
inactive
NC(=Nc1ccccc1)Nc1ccccc1
inactive
CCOCCOCCO
inactive
CN(C)C(=O)NC1(c2ccccc2)CCN(CCC[C@]2(c3ccc(Cl)c(Cl)c3)CCCN(C(=O)c3ccccc3)C2)CC1
inactive
Cn1cnc2c1c(=O)[nH]c(=O)n2C
inactive
CC(=O)CC(c1ccccc1)c1c(O)c2ccccc2oc1=O (stereo not given)
inactive
Nc1nc(=S)c2[nH]cnc2[nH]1
inactive
O=C(NS(=O)(=O)/C=C/c1cccs1)c1ccc(F)cc1Br
inactive
C/C=C/c1ccc(OC)cc1
inactive
CCC(C)N(C)C(=O)c1cc2ccccc2c(-c2ccccc2Cl)n1 (stereo not given)
inactive

====

Assay: IUF_NPC4_neurite_area_120hr: Leibniz Research Institute for Environmental Medicine (IUF) 120-hour Neuronal Morphology Assay for Neurite Area (NPC4) (AID 2284305)
Experimental: IUF_NPC2-5 is a cell-based, multiplexed assay that uses hNPC, a human primary neural progenitor cells, with measurements taken at 72 or 120 hours after chemical dosing in a 96-well plate. […] The processes radial glia migration, neuronal and oligodendrocyte migration as well as neuronal differentiation, neuronal morphology and oligodendrocyte differentiation are studied using automated phase contrast imaging and automated fluorescence imaging in combination with high content image analysis. […]
Results filed as inconclusive are left out. The source made the active and inactive calls. Rule for the calls: active = hit-call score of the fitted dose curve at least 0.9, where 1 is the maximum; inconclusive = response in the unintended direction; inactive = score below 0.9.
Outcomes: active, inactive

CN(C)CCCN1c2ccccc2Sc2ccc(Cl)cc21
active
O=C1NC(=O)C(c2ccccc2)(c2ccccc2)N1
inactive
CC(=O)CC(c1ccccc1)c1c(O)c2ccccc2oc1=O (centres undefined)
inactive
OCC(O)CO
inactive

====

Biological target: Aryl hydrocarbon receptor (Homo sapiens) (UniProt P35869)
Sequence (P35869 whole entry, looked up): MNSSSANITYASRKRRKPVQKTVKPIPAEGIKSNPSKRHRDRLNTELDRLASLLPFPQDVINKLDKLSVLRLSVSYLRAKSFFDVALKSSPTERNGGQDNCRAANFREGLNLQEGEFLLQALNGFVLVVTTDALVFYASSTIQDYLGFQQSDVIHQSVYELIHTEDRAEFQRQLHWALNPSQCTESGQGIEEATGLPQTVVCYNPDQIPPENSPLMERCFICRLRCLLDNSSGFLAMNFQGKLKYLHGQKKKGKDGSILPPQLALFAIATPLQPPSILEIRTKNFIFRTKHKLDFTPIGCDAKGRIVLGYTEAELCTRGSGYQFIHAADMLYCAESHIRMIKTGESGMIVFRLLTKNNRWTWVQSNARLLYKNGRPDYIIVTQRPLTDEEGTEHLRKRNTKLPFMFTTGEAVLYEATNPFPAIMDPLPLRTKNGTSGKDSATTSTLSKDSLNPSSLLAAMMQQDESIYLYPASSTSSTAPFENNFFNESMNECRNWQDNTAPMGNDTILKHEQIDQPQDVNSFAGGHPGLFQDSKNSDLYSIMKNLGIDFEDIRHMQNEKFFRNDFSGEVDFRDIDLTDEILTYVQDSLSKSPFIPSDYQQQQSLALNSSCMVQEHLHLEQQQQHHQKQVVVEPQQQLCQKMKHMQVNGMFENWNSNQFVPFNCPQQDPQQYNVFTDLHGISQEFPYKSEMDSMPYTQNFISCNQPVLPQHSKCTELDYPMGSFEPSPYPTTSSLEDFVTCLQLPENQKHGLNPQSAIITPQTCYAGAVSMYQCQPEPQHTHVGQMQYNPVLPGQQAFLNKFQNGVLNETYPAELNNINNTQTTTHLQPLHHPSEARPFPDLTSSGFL
Assay: ATG_Ahr_CIS: Attagene CIS-FACTORIAL HepG2 Assay for human Aryl Hydrocarbon Receptor (Ahr) (AID 2282930)
Conditions: HepG2 AhR cis-factorial reporter transcription; actives raise or lower the signal
Description: ATG_CIS is a cell-based, multiplexed-readout assay that uses HepG2, a human liver cell line, with measurements taken at 24 hours after chemical dosing in a 24-well plate.ATG_Ahr_CIS is one of 52 assay component(s) measured or calculated from the ATG_CIS assay. […] This assay endpoint, ATG_Ahr_CIS, was analyzed with bidirectional fitting relative to DMSO as the negative control and baseline of activity. […]
Active and inactive are the calls of the source. How the source made its calls: active means hit-call score of the fitted dose curve at least 0.9, where 1 is the maximum; inactive means score below 0.9.
Outcomes: 1 (active), 0 (inactive)

c1ccc2occc2c1
1
O=C1c2c(O)cccc2Cc2cccc(O)c21
1
CCC(C)N(C)C(=O)c1cc2ccccc2c(-c2ccccc2Cl)n1 (stereo not drawn)
0
CCCCC(CC)COP(=O)(OCC(CC)CCCC)OCC(CC)CCCC (stereo not drawn)
1
CC1(C)C(=O)NC(=O)N1CO
0
CN(C)CCCN1c2ccccc2Sc2ccc(Cl)cc21
0
CCCCCCCC(=O)OC
0
Nc1nc(=S)c2[nH]cnc2[nH]1
1
CN(C)C(=O)NC1(c2ccccc2)CCN(CCC[C@]2(c3ccc(Cl)c(Cl)c3)CCCN(C(=O)c3ccccc3)C2)CC1
0
CCCC(=O)O
0
O=C(O)c1cccnc1
0
O=C(NS(=O)(=O)/C=C/c1cccs1)c1ccc(F)cc1Br
0
Cc1cc(SC2=C(O)C[C@@](CCc3ccc(N)cc3)(C(C)C)OC2=O)c(C(C)(C)C)cc1CO
0

====

Read-out: Interferon-gamma inducible Protein 10 (IP10), CXCL10 (gene 3627)
Assay: BSK_hDFCGF_IP10: BioMAP Diversity Plus: hDFCGF Assay for Interferon-gamma inducible Protein 10 (IP10) Biomarker Activity (AID 2283053)
Conditions: primary human foreskin fibroblasts; actives raise or lower the signal
Active and inactive are the calls of the source. The calls were made as follows: active = hit-call score of the fitted dose curve at least 0.9, where 1 is the maximum; inactive = score below 0.9.
Outcomes: active, inactive

CCCCCCCCCCCCCCOS(=O)(=O)O
active
O=C1NC(=O)C(c2ccccc2)(c2ccccc2)N1
inactive
CC(C)COC(=O)CCCCC(=O)OCC(C)C
inactive
CC(=O)[C@@]1(O)CC[C@H]2[C@@H]3CCC4=CC(=O)CC[C@]4(C)[C@H]3CC[C@@]21C
inactive
C/C=C/C=C/C(=O)O
inactive
CC(=O)O[C@]1(C(C)=O)CC[C@H]2[C@@H]3C=C(Cl)C4=CC(=O)[C@@H]5C[C@@H]5[C@]4(C)[C@H]3CC[C@@]21C
inactive
COC(=O)CCCC(=O)OC
inactive
O=C(O)c1[nH]n(-c2ccc(S(=O)(=O)O)cc2)c(=O)c1N=Nc1ccc(S(=O)(=O)O)cc1
inactive
CSc1ccc(Oc2ccc(S(N)(=O)=O)cc2CN(C)C)cc1C
inactive
C=CCCCCCCCCCCCC
inactive
CCCCC(CC)COC(=O)CCCCCCCC(=O)OCC(CC)CCCC (stereo not drawn)
inactive
CCCCOC(=O)CCCCC(=O)OCCCC
inactive
Nc1nc(=S)c2[nH]cnc2[nH]1
inactive
